test system: Salmonella typhi; experiment: Antibacterial screening, agar well diffusion; type: cell-based
quantity: activity against Salmonella typhi (in words)

molecule	recordedResult
CC1(C)CC[C@]2(CO)CC[C@]3(C)C(=CC[C@@H]4[C@@]5(C)CC[C@H](O)C(C)(C)[C@@H]5CC[C@]43C)[C@@H]2C1 [Compound 13, erythrodiol]	significant activity
C[C@H]1[C@H](C)CC[C@]2(C(=O)O)CC[C@]3(C)C(=CC[C@@H]4[C@@]5(C)C[C@@H](O)[C@H](O)C(C)(C)[C@@H]5CC[C@]43C)[C@H]12 [Compound 11, corosolic acid]	significant activity
CC1(C)CC[C@]2(C(=O)O)CC[C@]3(C)C(=CC[C@@H]4[C@@]5(C)CC[C@H](O)C(C)(C)[C@@H]5CC[C@]43C)[C@@H]2C1 [Compound 14, oleanolic acid]	significant activity

====

tested on: Salmonella typhi; test: Antibacterial screening, agar well diffusion; assay type: cell-based
quantity: activity against Salmonella typhi (in words)

>>> df
                            structuresmiles        recordedresult
0  C=C(C)[C@@H]1CC[C@]2(CO)CC[C@]3(C)[C@H](CC[C@@H]4[C@@]5(C)CC[C@H](O)C(C)(C)[C@@H]5CC[C@]43C)[C@@H]12  significant activity
1  CC1(C)CC[C@]2(C(=O)O)CC[C@]3(C)C(=CC[C@@H]4[C@@]5(C)C[C@@H](O)[C@H](O)[C@@](C)(CO)[C@@H]5CC[C@]43C)[C@@H]2C1  significant activity
2  CC[C@H](CC[C@@H](C)[C@H]1CC[C@H]2[C@@H]3CC=C4C[C@@H](O)CC[C@]4(C)[C@H]3CC[C@]12C)C(C)C  significant activity

====

Assignment: determine reported Inhibition zone, BS (Bacillus subtilis) for the given compounds.
system: Bacillus subtilis; assay: Antibacterial screening, agar well diffusion; format: cell-based; settings: 100 μL of 3 mg/3 ml DMSO sample per 6-mm well, 37° C., 24 h
One number for each entry, in mm.

>>> print(df.to_string())
                                   compound                                 quantity  recordedresult
0  CC(=O)c1c(O)c(C)c(O)c2c1OC1=CC(=O)C(C(C)=O)C(=O)C12C (stereo not drawn)  Inhibition zone, BS (Bacillus subtilis)              16

Each compound below has a reported value. Please supply its Inhibition zone, BS (Bacillus subtilis).
1. CC1(C)CC[C@]2(CO)CC[C@]3(C)C(=CC[C@@H]4[C@@]5(C)CC[C@H](O)C(C)(C)[C@@H]5CC[C@]43C)[C@@H]2C1
2. CC[C@H](CC[C@@H](C)[C@H]1CC[C@H]2[C@@H]3CC=C4C[C@@H](O)CC[C@]4(C)[C@H]3CC[C@]12C)C(C)C

[17, 12]

====

system: Pseudomonas aeruginosa; test: Antibacterial screening, agar well diffusion; type: cell-based; details: 100 μL of 3 mg/3 ml DMSO sample per 6-mm well, 37° C., 24 h
Assignment: determine reported Inhibition zone, PA (Pseudomonas aeruginosa) for the given compounds.

compound	recordedResult
CC1(C)CC[C@]2(CO)CC[C@]3(C)C(=CC[C@@H]4[C@@]5(C)CC[C@H](O)C(C)(C)[C@@H]5CC[C@]43C)[C@@H]2C1 [Compound 13, erythrodiol]	12 mm
C[C@@H](O)[C@H]1C(=O)N2C(C(=O)O)=C(SCCN=CN)C[C@H]12 [Imipenem, reference compound]	24 mm
CC(=O)c1c(O)c(C)c(O)c2c1OC1=CC(=O)C(C(C)=O)C(=O)C12C (stereo not drawn) [Compound 9, usnic acid]	17 mm

Each compound below has a reported value. Please supply its Inhibition zone, PA (Pseudomonas aeruginosa).
1. C[C@H]1[C@H](C)CC[C@]2(C(=O)O)CC[C@]3(C)C(=CC[C@@H]4[C@@]5(C)C[C@@H](O)[C@H](O)C(C)(C)[C@@H]5CC[C@]43C)[C@H]12 [Compound 11, corosolic acid]
2. C=C(C)[C@@H]1CC[C@]2(CO)CC[C@]3(C)[C@H](CC[C@@H]4[C@@]5(C)CC[C@H](O)C(C)(C)[C@@H]5CC[C@]43C)[C@@H]12 [Compound 15, betulin]
3. CC[C@H](CC[C@@H](C)[C@H]1CC[C@H]2[C@@H]3CC=C4C[C@@H](O)CC[C@]4(C)[C@H]3CC[C@]12C)C(C)C [Compound 7, β-sitosterol]
4. CC1(C)CC[C@]2(C(=O)O)CC[C@]3(C)C(=CC[C@@H]4[C@@]5(C)CC[C@H](O)C(C)(C)[C@@H]5CC[C@]43C)[C@@H]2C1 [Compound 14, oleanolic acid]
5. CC(C)C(=O)c1c(O)c2c(c3c1OC1=C(C(=O)C(C)(C)C(=O)C1(C)C)[C@@H]3C(C)C)OC1=C(C(=O)C(C)(C)C(=O)C1(C)C)[C@@H]2C(C)C [Compound 2, Myrtucommulone-E]
6. CC1(C)CC[C@]2(C(=O)O)CC[C@]3(C)C(=CC[C@@H]4[C@@]5(C)C[C@@H](O)[C@H](O)[C@@](C)(CO)[C@@H]5CC[C@]43C)[C@@H]2C1 [Compound 12, arjunolic acid]

["17 mm", "18 mm", "16 mm", "16 mm", "13 mm", "12 mm"]
